Cited source for all entries: patent US20050197350A1

Reported pIC50 values follow for various molecules
assayed-target: MCH receptor (Homo sapiens, UniProt Q99705)
protocol-details: High throughput functional screening FLIPR/FDSS6000 (intracellular Ca2+ evoked by MCH)
Assay type: cell-based
condition: FLIPR/FDSS, antagonist activity vs 50 nM MCH; class by percent of control at 10^−7 M or IC50; table after the classification; read-out: class
pIC50: −log10 of the molar value. Where a name gives a salt, the structure may show the parent alone.

Take a look at these entries with their results.
[
  {
    "molecule": "CN(C)c1nc(N[C@H]2CC[C@@H](C(N)Cc3ccccc3OC(F)(F)F)CC2)nc2c1CCCC2 (relative stereo) [Example 16, dihydrochloride]",
    "assayed-target": "MCH receptor (Homo sapiens, UniProt Q99705)",
    "pIC50": "> 7.30"
  },
  {
    "molecule": "Cc1cc(N(C)C)nc(N[C@H]2CC[C@@H](NC(=O)c3cccnc3Oc3ccccc3)CC2)n1 [Example 3126, hydrochloride]",
    "assayed-target": "MCH receptor (Homo sapiens, UniProt Q99705)",
    "pIC50": "> 7.30"
  },
  {
    "molecule": "COc1ccc(Oc2ncccc2C(=O)N[C@H]2CC[C@@H](Nc3ccc4ccccc4n3)CC2)cc1 [Example 3059, hydrochloride]",
    "assayed-target": "MCH receptor (Homo sapiens, UniProt Q99705)",
    "pIC50": "> 7.30"
  },
  {
    "molecule": "CN(C)c1nc(N[C@H]2CC[C@@H](NC(=O)c3cc([N+](=O)[O-])cn3C)CC2)nc2c1CCCC2 [Example 3194, hydrochloride]",
    "assayed-target": "MCH receptor (Homo sapiens, UniProt Q99705)",
    "pIC50": "> 7.30"
  },
  {
    "molecule": "Cc1cc(N[C@H]2CC[C@@H](NC(=O)c3ccc(Cl)cc3)CC2)nc2ccccc12 [Example 3172, hydrochloride]",
    "assayed-target": "MCH receptor (Homo sapiens, UniProt Q99705)",
    "pIC50": "> 7.30"
  },
  {
    "molecule": "CN(C)c1ccnc(N[C@H]2CC[C@@H](NC(=O)c3cc(F)cc(F)c3)CC2)n1 [Example 3205, hydrochloride]",
    "assayed-target": "MCH receptor (Homo sapiens, UniProt Q99705)",
    "pIC50": "6.70 to 7.30"
  },
  {
    "molecule": "COc1cccc(C(=O)N[C@H]2CC[C@@H](Nc3cc(C)c4ccccc4n3)CC2)c1 [Example 3076, hydrochloride]",
    "assayed-target": "MCH receptor (Homo sapiens, UniProt Q99705)",
    "pIC50": "> 7.30"
  },
  {
    "molecule": "COc1cccc(OCC(=O)N[C@H]2CC[C@@H](Nc3nccc(N(C)C)n3)CC2)c1 [Example 3394, hydrochloride]",
    "assayed-target": "MCH receptor (Homo sapiens, UniProt Q99705)",
    "pIC50": "> 7.30"
  }
]

From here, focus on the item given below.
Note to self: pIC50 recorded for COc1cc(OC)nc(N[C@H]2CC[C@@H](NC(=O)c3ccc(F)c(F)c3)CC2)n1 [Example 3132, hydrochloride] was < 6.70

* * *

Reported IC50 values follow for various compounds
assayed-target: MCH receptor (Homo sapiens, UniProt Q99705)
protocol-details: High throughput functional screening FLIPR/FDSS6000 (intracellular Ca2+ evoked by MCH)
Type: cell-based
condition: FLIPR/FDSS, antagonist activity vs 50 nM MCH; class by percent of control at 10^−7 M or IC50; table after the classification; read-out: class
Excerpt: High Throughput Functional Screening: FLIPR™ This assay utilized a non-endogenous, constitutively active version of the MCH receptor. […] Fluorometric Imaging Plate Reader system was used to allow for rapid, kinetic measurements of intracellular fluorescence in 96 well microplates (or 384 well microplates). Simultaneous measurements of fluorescence in all wells can be made by FLIPR or FDSS6000™ every second with high sensitivity and precision. […]
Structures can show the parent of a compound that is named as a salt.

[
  {
    "compound": "Cc1cc(N(C)C)nc(N[C@H]2CC[C@@H](NC(=O)c3ccc(Cl)c(F)c3)CC2)n1 [Example 3383, hydrochloride]",
    "assayed-target": "MCH receptor (Homo sapiens, UniProt Q99705)",
    "endpoint-result": "< 50 nM"
  },
  {
    "compound": "O=C(N[C@H]1CC[C@@H](Nc2ccc3ccccc3n2)CC1)C(c1ccccc1)c1ccccc1 [Example 3052, hydrochloride]",
    "assayed-target": "MCH receptor (Homo sapiens, UniProt Q99705)",
    "endpoint-result": "< 50 nM"
  }
]

From here, focus on the item given below.
Note to self: IC50 recorded for CN(C)c1ccnc(N[C@H]2CC[C@@H](CNC(=O)Nc3cccc(Cl)c3Cl)CC2)n1 [Example 3222, hydrochloride] was < 50 nM

* * *

assayed-target: MCH receptor (Homo sapiens, UniProt Q99705)
protocol-details: High throughput functional screening FLIPR/FDSS6000 (intracellular Ca2+ evoked by MCH)
Assay type: cell-based
condition: FLIPR/FDSS, antagonist activity vs 50 nM MCH; class by percent of control at 10^−7 M or IC50; read-out: class
readout-name: IC50

Take a look at these entries with their results.
[
  {
    "molecule": "Cc1cc(N(C)C)nc(N[C@H]2CC[C@@H](NC(=O)NC3(c4ccc(Cl)cc4)CC3)CC2)n1 [Example 3267]",
    "endpoint-result": "< 50 nM"
  },
  {
    "molecule": "Cc1cnc(N[C@H]2CC[C@@H](NC(=O)Nc3cc(C(F)(F)F)cc(C(F)(F)F)c3)CC2)nc1N(C)C [Example 3334]",
    "endpoint-result": "50 to 200 nM"
  },
  {
    "molecule": "Cc1cnc(N[C@H]2CC[C@@H](NC(=O)c3cccnc3S(=O)(=O)c3ccccc3Cl)CC2)nc1N(C)C [Example 3284]",
    "endpoint-result": "50 to 200 nM"
  },
  {
    "molecule": "Cc1cc(N(C)C)nc(N[C@H]2CC[C@@H](NC(=O)c3cccnc3S(=O)(=O)c3ccccc3C(F)(F)F)CC2)n1 [Example 3381]",
    "endpoint-result": "> 200 nM"
  },
  {
    "molecule": "Cc1cc(CN[C@H]2CC[C@@H](NC(=O)c3ccc(F)c(F)c3)CC2)nc2ccccc12 [Example 3366]",
    "endpoint-result": "> 200 nM"
  },
  {
    "molecule": "Cc1cnc(N[C@H]2CC[C@@H](NC(=O)NC(C)(C)c3ccc(Cl)cc3)CC2)nc1N(C)C [Example 3264]",
    "endpoint-result": "< 50 nM"
  },
  {
    "molecule": "Cc1cnc(N[C@H]2CC[C@@H](NC(=O)Nc3cc(Cl)cc(Cl)c3)CC2)nc1N(C)C [Example 3339]",
    "endpoint-result": "50 to 200 nM"
  },
  {
    "molecule": "Cc1cnc(N[C@H]2CC[C@@H](C(=O)N[C@@H](C)c3ccc(Cl)cc3)CC2)nc1N(C)C [Example 3292]",
    "endpoint-result": "50 to 200 nM"
  }
]

Note to self: IC50 recorded for Cc1cnc(N[C@H]2CC[C@@H](NC(=O)Nc3ccc(F)c(Cl)c3)CC2)nc1N(C)C [Example 3331] was 50 to 200 nM

Note to self: IC50 recorded for Cc1cnc(NC2CCC(C(=O)N[C@@H](C)c3ccccc3C(F)(F)F)CC2)nc1N(C)C (stereo partly shown) [Example 3300] was < 50 nM

Note to self: IC50 recorded for Cc1cnc(N[C@H]2CC[C@@H](C(=O)N[C@@H](C)c3ccc(Br)cc3)CC2)nc1N(C)C [Example 3308] was < 50 nM

Note to self: IC50 recorded for Cc1cnc(N[C@H]2CC[C@@H](C(=O)N[C@@H](C)c3ccccc3F)CC2)nc1N(C)C [Example 3295] was > 200 nM

Note to self: IC50 recorded for COc1ccc(NC(=O)N[C@H]2CC[C@@H](Nc3ncc(C)c(N(C)C)n3)CC2)cc1OC [Example 3323] was < 50 nM

* * *

assayed-target: MCH receptor (Homo sapiens, UniProt Q99705)
protocol-details: High throughput functional screening FLIPR/FDSS6000 (intracellular Ca2+ evoked by MCH)
Assay type: cell-based
condition: FLIPR/FDSS, antagonist activity vs 50 nM MCH; class by percent of control at 10^−7 M or IC50; table after the classification; read-out: class
Counter-ions that a name gives are not always drawn.
readout-name: IC50

[
  {
    "molecule": "Cc1cc(N[C@H]2CC[C@@H](NC(=O)c3cccnc3Oc3ccc(Br)cc3)CC2)nc2ccccc12 [Example 3094, hydrochloride]",
    "IC50": "< 50 nM"
  },
  {
    "molecule": "CN(C)c1ccnc(N[C@H]2CC[C@@H](NC(=O)c3cc(F)cc(Cl)c3)CC2)n1 [Example 3215, hydrochloride]",
    "IC50": "50 to 200 nM"
  },
  {
    "molecule": "Cc1cccc(C(=O)N[C@H]2CC[C@@H](Nc3ncc(C)c(N(C)C)n3)CC2)c1 [Example 3121, hydrochloride]",
    "IC50": "< 50 nM"
  },
  {
    "molecule": "O=C(N[C@H]1CC[C@@H](Nc2ccc3ccccc3n2)CC1)c1cccc(C(F)(F)F)c1 [Example 3050, hydrochloride]",
    "IC50": "< 50 nM"
  },
  {
    "molecule": "CN(C)c1ccnc(N[C@H]2CC[C@@H](NCc3ccc(Br)cc3OC(F)(F)F)CC2)n1 [Example 17, dihydrochloride]",
    "IC50": "50 to 200 nM"
  },
  {
    "molecule": "CN(C)c1ccnc(N[C@H]2CC[C@@H](CNC(=O)C3c4ccccc4Oc4ccccc43)CC2)n1 [Example 3221, hydrochloride]",
    "IC50": "< 50 nM"
  },
  {
    "molecule": "CCN(CC(=O)N[C@H]1CC[C@@H](Nc2nccc(N(C)C)n2)CC1)c1ccc(Cl)cc1 [Example 3203, dihydrochloride]",
    "IC50": "< 50 nM"
  },
  {
    "molecule": "COc1cc(OC)cc(C(=O)N[C@H]2CC[C@@H](Nc3nc4c(c(N(C)C)n3)CCCC4)CC2)c1 [Example 3110, hydrochloride]",
    "IC50": "< 50 nM"
  },
  {
    "molecule": "COc1cccc(OCC(=O)N[C@H]2CC[C@@H](Nc3ccc4ccccc4n3)CC2)c1 [Example 3062, hydrochloride]",
    "IC50": "< 50 nM"
  }
]

From here, focus on the item given below.
Note to self: IC50 recorded for Cc1cc(N[C@H]2CC[C@@H](NC(=O)c3ccncc3)CC2)nc2ccccc12 [Example 3183, hydrochloride] was > 200 nM
